# TEST SUMMARY: Plasma and brain NVS-PAK1-1 concentrations in 5xFAD mice
# Type: in vivo
# ASSAY SETUP: male, 5xFAD, mouse, plasma, po, 100 mg/kg, young 5xFAD males, 100 mg/kg BID PO 12 weeks, 4 h after final dose; read-out: average plasma concentration
MEASURE NAME: concentration at 4 h (ng/mL)

compound="CC(C)NC(=O)N1CC[C@H](NC2=Nc3cc(F)ccc3N(CC(F)F)c3ccc(Cl)cc32)C1 [NVS‐PAK1‐1]" readout_number=309

====

# TEST SUMMARY: In vivo PK in CD-1 mice, plasma and brain by LC-MS/MS
# ASSAY SETUP: male, CD-1, mouse, plasma, po, 1 mg/kg, Tmax, 1 mg/kg PO
MEASURE NAME: Tmax

compound="CC(C)NC(=O)N1CC[C@H](NC2=Nc3cc(F)ccc3N(CC(F)F)c3ccc(Cl)cc32)C1 [NVS‐PAK1‐1]" result="1 h"

====

# TEST SUMMARY: In vivo PK in CD-1 mice, plasma and brain by LC-MS/MS
# ASSAY SETUP: plasma, 100 mg/kg PO
MEASURE NAME: AUClast/D (h·ng/mL per mg/kg)

compound="CC(C)NC(=O)N1CC[C@H](NC2=Nc3cc(F)ccc3N(CC(F)F)c3ccc(Cl)cc32)C1 [NVS‐PAK1‐1]" result_unit="h·ng/mL per mg/kg" readout_number=45.7

====

# TEST SUMMARY: In vivo PK in CD-1 mice, plasma and brain by LC-MS/MS
# ASSAY SETUP: male, CD-1, mouse, plasma, po, 10 mg/kg, MRTInf_obs, 10 mg/kg PO, sampling 1, 3, 8 h
MEASURE NAME: MRT inf (h)

smiles_input=CC(C)NC(=O)N1CC[C@H](NC2=Nc3cc(F)ccc3N(CC(F)F)c3ccc(Cl)cc32)C1 measure_name="MRT inf" readout_number=2.1

====

# TEST SUMMARY: Plasma and brain NVS-PAK1-1 concentrations in 5xFAD mice
# Format: in vivo
# ASSAY SETUP: female, 5xFAD, mouse, plasma, po, 100 mg/kg, young 5xFAD females, 100 mg/kg BID PO 12 weeks, 4 h after final dose; read-out: average plasma concentration
MEASURE NAME: concentration at 4 h (ng/mL)

smiles_input=CC(C)NC(=O)N1CC[C@H](NC2=Nc3cc(F)ccc3N(CC(F)F)c3ccc(Cl)cc32)C1 measure_name="concentration at 4 h" readout_number=324

====

# TEST SUMMARY: In vivo PK in CD-1 mice, plasma and brain by LC-MS/MS
# ASSAY SETUP: male, CD-1, mouse, plasma, po, 100 mg/kg, AUClast, 100 mg/kg PO
MEASURE NAME: AUC(0-t) (ng·h/mL)

molecule="CC(C)NC(=O)N1CC[C@H](NC2=Nc3cc(F)ccc3N(CC(F)F)c3ccc(Cl)cc32)C1 [NVS‐PAK1‐1]" result_unit=ng·h/mL readout_number=4570

====

# TEST SUMMARY: In vivo PK in CD-1 mice, plasma and brain by LC-MS/MS
# ASSAY SETUP: male, CD-1, mouse, brain/plasma, po, 10 mg/kg
MEASURE NAME: Kp

smiles_input=CC(C)NC(=O)N1CC[C@H](NC2=Nc3cc(F)ccc3N(CC(F)F)c3ccc(Cl)cc32)C1 result=0.21

====

# TEST SUMMARY: In vivo PK in CD-1 mice, plasma and brain by LC-MS/MS
# ASSAY SETUP: male, CD-1, mouse, plasma, po, 100 mg/kg, Tmax, 100 mg/kg PO
MEASURE NAME: Tmax

smiles_input=CC(C)NC(=O)N1CC[C@H](NC2=Nc3cc(F)ccc3N(CC(F)F)c3ccc(Cl)cc32)C1 measure_name=Tmax result="1 h"

====

# TEST SUMMARY: In vivo PK in CD-1 mice, plasma and brain by LC-MS/MS
# ASSAY SETUP: male, CD-1, mouse, plasma, ip, 10 mg/kg, T1/2, plasma, 10 mg/kg IP, sampling 0.5, 1, 3, 5 h
MEASURE NAME: half-life (min)

molecule="CC(C)NC(=O)N1CC[C@H](NC2=Nc3cc(F)ccc3N(CC(F)F)c3ccc(Cl)cc32)C1 [NVS‐PAK1‐1]" readout_number=48.8

====

# TEST SUMMARY: In vivo PK in CD-1 mice, plasma and brain by LC-MS/MS
# ASSAY SETUP: male, CD-1, mouse, brain/plasma, ip, 10 mg/kg
MEASURE NAME: Kp at 1 h

smiles_input=CC(C)NC(=O)N1CC[C@H](NC2=Nc3cc(F)ccc3N(CC(F)F)c3ccc(Cl)cc32)C1 measure_name="Kp at 1 h" result=0.25

====

# TEST SUMMARY: In vivo PK in CD-1 mice, plasma and brain by LC-MS/MS
# ASSAY SETUP: male, CD-1, mouse, brain, po, 100 mg/kg, Tmax, 100 mg/kg PO
MEASURE NAME: Tmax (h)

compound="CC(C)NC(=O)N1CC[C@H](NC2=Nc3cc(F)ccc3N(CC(F)F)c3ccc(Cl)cc32)C1 [NVS‐PAK1‐1]" measure_name=Tmax result_unit=h readout_number=1

====

# TEST SUMMARY: In vivo PK in CD-1 mice, plasma and brain by LC-MS/MS
# ASSAY SETUP: male, CD-1, mouse, plasma, po, 1 mg/kg, MRTInf_obs, 1 mg/kg PO
MEASURE NAME: MRT inf (h)

compound="CC(C)NC(=O)N1CC[C@H](NC2=Nc3cc(F)ccc3N(CC(F)F)c3ccc(Cl)cc32)C1 [NVS‐PAK1‐1]" measure_name="MRT inf" result_unit=h readout_number=3.92

====

# TEST SUMMARY: In vivo PK in CD-1 mice, plasma and brain by LC-MS/MS
# ASSAY SETUP: male, CD-1, mouse, plasma, po, 1 mg/kg, T1/2, plasma, 1 mg/kg PO
MEASURE NAME: half-life (h)

smiles_input=CC(C)NC(=O)N1CC[C@H](NC2=Nc3cc(F)ccc3N(CC(F)F)c3ccc(Cl)cc32)C1 measure_name=half-life readout_number=2.62

====

# TEST SUMMARY: In vivo PK in CD-1 mice, plasma and brain by LC-MS/MS
# ASSAY SETUP: male, CD-1, mouse, brain, po, 100 mg/kg, Cmax, 100 mg/kg PO
MEASURE NAME: Cmax (ng/mL)

smiles_input=CC(C)NC(=O)N1CC[C@H](NC2=Nc3cc(F)ccc3N(CC(F)F)c3ccc(Cl)cc32)C1 measure_name=Cmax readout_number=759

====

# TEST SUMMARY: In vivo PK in CD-1 mice, plasma and brain by LC-MS/MS
# ASSAY SETUP: male, CD-1, mouse, plasma, ip, 10 mg/kg, MRTInf_obs, 10 mg/kg IP, sampling 0.5, 1, 3, 5 h
MEASURE NAME: MRT inf (h)

smiles_input=CC(C)NC(=O)N1CC[C@H](NC2=Nc3cc(F)ccc3N(CC(F)F)c3ccc(Cl)cc32)C1 readout_number=1.1

====

# TEST SUMMARY: In vivo PK in CD-1 mice, plasma and brain by LC-MS/MS
# ASSAY SETUP: male, CD-1, mouse, brain, po, 10 mg/kg, T1/2, brain, 10 mg/kg PO
MEASURE NAME: half-life (min)

compound="CC(C)NC(=O)N1CC[C@H](NC2=Nc3cc(F)ccc3N(CC(F)F)c3ccc(Cl)cc32)C1 [NVS‐PAK1‐1]" readout_number=56.5

====

# TEST SUMMARY: In vivo PK in CD-1 mice, plasma and brain by LC-MS/MS
# ASSAY SETUP: male, CD-1, mouse, brain, po, 10 mg/kg, AUCInf, 10 mg/kg PO
MEASURE NAME: AUC(0-inf)

smiles_input=CC(C)NC(=O)N1CC[C@H](NC2=Nc3cc(F)ccc3N(CC(F)F)c3ccc(Cl)cc32)C1 measure_name=AUC(0-inf) result="67.8 ng·h/mL"

====

# TEST SUMMARY: In vivo PK in CD-1 mice, plasma and brain by LC-MS/MS
# ASSAY SETUP: male, CD-1, mouse, brain, po, 100 mg/kg, T1/2, brain, 100 mg/kg PO
MEASURE NAME: half-life (h)

smiles_input=CC(C)NC(=O)N1CC[C@H](NC2=Nc3cc(F)ccc3N(CC(F)F)c3ccc(Cl)cc32)C1 measure_name=half-life readout_number=1.23

====

# TEST SUMMARY: In vivo PK in CD-1 mice, plasma and brain by LC-MS/MS
# ASSAY SETUP: male, CD-1, mouse, plasma, ip, 10 mg/kg, Cmax, 10 mg/kg IP, sampling 0.5, 1, 3, 5 h
MEASURE NAME: Cmax

molecule="CC(C)NC(=O)N1CC[C@H](NC2=Nc3cc(F)ccc3N(CC(F)F)c3ccc(Cl)cc32)C1 [NVS‐PAK1‐1]" result="878 ng/mL"

// data source = paper PMC12741935
